system: SN12C renal; assay: NCI tumour cell line growth inhibition, 48 h
MEASURED_ENDPOINT: TGI

What value of TGI has been reported for the following compound? CN(C)C(=O)Oc1ccc[n+](C)c1
> 100 µM

What value of TGI has been reported for the following compound? COc1cc(S(=O)(=O)Nc2ccc(-c3csc(N4C(=O)C(C)SC4c4cccc(Oc5ccccc5)c4)n3)cc2)ccc1Cl (centres undefined)
> 100 µM

What value of TGI has been reported for the following compound? CCOC(=O)C(=Cc1ccc(-c2ccccc2)cc1)C(=O)OCC
4.23 µM

What value of TGI has been reported for the following compound? CCOC(=O)Oc1ccc(C(CNC(C)C)OC(=O)OCC)cc1OC(=O)OCC (centres undefined)
> 100 µM

What value of TGI has been reported for the following compound? COc1ccc(NC(C)=O)cc1N1C(=O)/C(=C\c2cccc(Oc3ccccc3)c2)S(=O)(=O)C1c1ccccc1 (centres undefined)
73 µM

What value of TGI has been reported for the following compound? O=C(Nc1nc(=S)[nH][nH]1)C(=O)C1C(=O)Nc2ccccc2S1=O (centres undefined)
> 100 µM

What value of TGI has been reported for the following compound? CC(C)[C@@H](C)CC[C@@H](C)C1CC=C2[C@@H]3CCC4C[C@@H](O[Si](C)(C)C(C)(C)C)CC[C@]4(C)C3CC[C@@]21C (some centres undefined)
> 100 µM

What value of TGI has been reported for the following compound? NCCN1C(=O)c2cc(Cl)c(Cl)cc2C1(O)c1ccc(Cl)cc1 (centres undefined)
13.4 µM

What value of TGI has been reported for the following compound? CCOc1ccc(/C=C\c2cc(OC)c(OC)c(OC)c2)cc1
60.5 µM

---

system: HS 578T breast; assay: NCI tumour cell line growth inhibition, 48 h
MEASURED_ENDPOINT: TGI

Examples from the recorded data:
NCCN1C(=O)c2cc(Cl)c(Cl)cc2C1(O)c1ccc(Cl)cc1 (centres undefined); 8.44 µM
COc1ccc(C(=O)N2N=C(c3ccc(Br)cc3)CC2c2cn(-c3ccccc3)nc2-c2ccccc2)cc1 (centres undefined); > 50 µM
COC(=O)c1oc2c(C(C)=O)c(OCCN3CCOCC3)c(OC)cc2c1C; > 100 µM
CC(=O)c1c(-c2ccc(Cl)cc2)c(C#N)c(=S)n(C2OC(CO)C(O)C(O)C2O)c1-c1ccccc1 (centres undefined); > 100 µM
COc1cccc(C2CC(=O)c3cc(N4CCCC4)ccc3N2)c1 (centres undefined); > 100 µM

Find the measured TGI: item C=C1C(=O)O[C@H]2[C@H]1CC/C(COC(=O)NCc1ccc(Cn3c(=O)sn(CCCC)c3=O)cc1)=C\CC[C@@]1(C)O[C@@H]21 , target or system HS 578T breast.
12.7 µM

Find the measured TGI: item OC[C@H]1C[C@@H]2Cc3ccccc3N2N1 , target or system HS 578T breast.
> 100 µM

Find the measured TGI: item C[n+]1c2ccccc2c2/c(=C\C#N)c3ccccc3n21 , target or system HS 578T breast.
> 100 µM

Find the measured TGI: item O=c1cc(-c2ccccc2)oc2cc(OCc3cn(Cc4ccc(F)cc4)nn3)cc(OCc3cn(Cc4ccc(F)cc4)nn3)c12 , target or system HS 578T breast.
> 100 µM

---

tested on: SF-268 CNS; experiment: NCI tumour cell line growth inhibition, 48 h
MEASURED_ENDPOINT: TGI

Examples from the recorded data:
COc1ccc2nc3n[nH]c(N)c3nc2c1; 23.8 µM
COc1cc(/C=C\c2cc(/C=C\c3ccc(O)c(OC)c3)n(C(=O)COc3ccc(Cl)cc3Cl)n2)ccc1O; 9.84 µM
CSc1ccc(NC(=O)C2CCCCC2C(=O)O)cc1 (centres undefined); > 100 µM
O=C(Nc1nc(=S)[nH][nH]1)C(=O)C1C(=O)Nc2ccccc2S1=O (centres undefined); > 100 µM

What value of TGI has been reported for the following compound? COc1ccc(NC(=O)CC(=O)n2nc(-c3ccccc3)c(N=Nc3ccccc3C(=O)O)c2-c2ccccc2)cc1
> 100 µM

What value of TGI has been reported for the following compound? O=c1cc(NNc2ccc(F)cc2)[nH]c(=O)[nH]1
53.8 µM

What value of TGI has been reported for the following compound? C=C1CC[C@@H]2C(C)(C)[C@H](O)CC[C@@]2(C)[C@@H]1COc1ccc2ccc(=O)oc2c1
90.6 µM

What value of TGI has been reported for the following compound? CCOC(=O)N1CCC2C(=C(C)C(C)C3=C2C(=O)c2ccccc2C3=O)C1 (centres undefined)
> 10 µM

What value of TGI has been reported for the following compound? COc1cc2c[n+](C)c3c4cc(OC)c(OC)cc4c(OCCCCCCCCOc4cc5c6cc(OC)c(OC)cc6c[n+](C)c5c5cc(OC)c(OC)cc45)cc3c2cc1OC
> 100 µM

---

system: A498 renal; assay: NCI tumour cell line growth inhibition, 48 h; in the data active = GI50 below about 0.43 µM; inactive = the rest
# output must be one of active, inactive

Query: recorded result category for CC(C)c1ccc(COCc2cc(CN3CCCC3)c(O)c3ncccc23)cc1 in this test
inactive

Query: recorded result category for C[C@H](Nc1ccc2c(c1)OCCn1cc(N3C(=O)OC[C@H]3C(F)F)nc1-2)C(N)=O in this test
inactive

Query: recorded result category for CN(C)c1ccc2nc3ccc(=[N+](C)C)c([N+](=O)[O-])c-3sc2c1 in this test
inactive

Query: recorded result category for COC(=O)c1ccc2[nH]c(O)c(C(=Nc3ccc(N(C)C(=O)CN4CCN(C)CC4)cc3)c3cccc(OC)c3)c2c1 in this test
inactive

Query: recorded result category for COc1ccc2c(c1)C(=Nc1ccc(F)c(F)c1F)c1c-2c(Nc2ccc(F)c(F)c2F)nc2ccccc12 in this test
inactive

Query: recorded result category for COc1ccccc1NC(=O)c1ccc(NC2=C(Cl)C(=O)N(Cc3ccccc3)C2=O)cc1 in this test
inactive

---

test system: HCC-2998 colon; test: NCI tumour cell line growth inhibition, 48 h
Where a SMILES comes first, the peptide text is derived from it. Bridges are numbered along the chain shown (N, C = ends). [ ]: non-standard residue; d: D form. The star is where a group is joined. ξ: configuration not given here. PhAc = O=C(Cc1ccccc1)*; ξP = O=C(O)C1CCCN1
Decision: TGI >= 30 µM yields 1, all other cases yield 0.

The examples below pair each entry with its known result.
CC(=O)Oc1ccc2c3c1[C@H]1O[C@H]1c1cccc(c1-3)[C@@H]1O[C@H]21; 0
N#Cc1cc2c(cc1Cl)SC(=Nc1ccccc1)N(S(=O)(=O)c1ccc(Cl)cc1)S2(=O)=O; 1
CCOC1CCC2C(CCC(/C=C/c3ccc(O)c4ncccc34)N2C)C1 (stereo not given); 1
C[C@]12OC(=O)[C@]3(O)CC[C@H]4[C@@H](C[C@@H](O)[C@@]5(Cl)CC=CC(=O)[C@]45C)[C@]45OCC6C(=O)O[C@@H]1C[C@@]6(C)[C@H](C4=O)[C@@]32O5 (stereo not given in full); 0
Cc1ccc2c(=O)cc(-c3ccc(Cl)cc3)[nH]c2n1; 1
O=C(Cc1ccccc1)N[C@@H]1COC(=O)C2CCCN2C(=O)[C@@H]2CCCN2C1=O (stereo not given in full) (PhAc-[dS]-Pro-[ξP]; ester 1-C); 1
Cc1cc2nc(CS)[nH]c2cc1C; 1
N#C/C(=C/c1cccc2ccccc12)C(=O)c1ccccc1; 1

Say whether Cn1cc(NC(=O)c2cc(NC(=O)CCCCCCCCC(=O)Nc3cc(C(=O)Nc4cc(C(=O)NCCC(N)N)n(C)c4)n(C)c3)cn2C)cc1C(=O)NCCC(=N)N shows TGI of 30 µM or more.
1

---

tested on: TK-10 renal; test: NCI tumour cell line growth inhibition, 48 h
Where a SMILES comes first, the peptide text is derived from it. Bridges are numbered along the chain shown (N, C = ends). [ ]: non-standard residue; d: D form. The star is where a group is joined. ξ: configuration not given here. PhAc = O=C(Cc1ccccc1)*; ξP = O=C(O)C1CCCN1
Listed below: TGI values for each entry.

COC1CC(OC2C(C)OC(OC3C(C)OC(OC4CCC5(C)C(=CCC6(O)C5CC(OC(=O)c5ccc(O)cc5)C5(C)C(O)(C(C)=O)CCC65O)C4)CC3OC)CC2OC)OC(C)C1O (configuration not stated) (tested in a mixture with another compound); > 100 µM

Find the measured TGI: item COc1cc(/C=C\c2cc(/C=C\c3ccc(O)c(OC)c3)n(C(=O)COc3ccc(Cl)cc3Cl)n2)ccc1O , target or system TK-10 renal.
8.06 µM

Find the measured TGI: item Cc1cccc(-n2c(C)nc3ccc(NC(=S)Nc4ccccc4)cc3c2=O)c1 , target or system TK-10 renal.
> 100 µM

Find the measured TGI: item O=C(NC(N1CCN(c2cc3c(cc2F)c(=O)c(C(=O)O)cn3C2CC2)CC1)(C(F)(F)F)C(F)(F)F)c1ccccc1 , target or system TK-10 renal.
87.4 µM

Find the measured TGI: item O=C(Cc1ccccc1)N[C@@H]1COC(=O)C2CCCN2C(=O)[C@@H]2CCCN2C1=O (some centres not stated) (PhAc-[dS]-Pro-[ξP]; ester 1-C) , target or system TK-10 renal.
> 100 µM

Find the measured TGI: item CC(=O)/C(N=Nc1ccc(-n2c(C)nc3ccccc3c2=O)cc1)=C(/C)O , target or system TK-10 renal.
> 100 µM

Find the measured TGI: item CCN(C(C)=N)c1ccccc1 , target or system TK-10 renal.
> 100 µM

Find the measured TGI: item COc1ccc2c3c([nH]c2c1)C(=O)c1nc(C)ccc1C3=O , target or system TK-10 renal.
> 100 µM

Find the measured TGI: item CC1OC(OC2C(O)COC(OC3C(C)OC(OC4C(OC(=O)[C@]56CCC(C)(C)C[C@@H]5C5=CCC7[C@@]8(C)C[C@H](O)[C@H](OC9OC(CO)C(O)C(O)C9O)[C@@](C)(CO)[C@@H]8CC[C@@]7(C)[C@]5(C)CC6)OCC(O)C4O)C(O)C3OC3OCC(O)C(O)C3O)C2O)C(O)C(O)C1O (some centres not stated) , target or system TK-10 renal.
33 µM

Find the measured TGI: item CC(=O)Oc1c(C)cc2c(c1C)C(C)CN2C(C)=O (configuration not stated) , target or system TK-10 renal.
> 100 µM

Find the measured TGI: item CC(C)OC(=O)c1cc(NC(=O)C(C)(C)C)c(F)cc1Cl , target or system TK-10 renal.
> 100 µM

Find the measured TGI: item Cn1ccnc1CCc1ccc(Cl)cc1Cl , target or system TK-10 renal.
> 100 µM
